Values compiled from patent US11564923B2.

# system-name: Recombinant human JAK1 (catalytic domain, amino acids 866-1154) (Homo sapiens, UniProt P23458)
# Construct: catalytic domain, amino acids 866-1154
# Sequence (P23458 866-1154): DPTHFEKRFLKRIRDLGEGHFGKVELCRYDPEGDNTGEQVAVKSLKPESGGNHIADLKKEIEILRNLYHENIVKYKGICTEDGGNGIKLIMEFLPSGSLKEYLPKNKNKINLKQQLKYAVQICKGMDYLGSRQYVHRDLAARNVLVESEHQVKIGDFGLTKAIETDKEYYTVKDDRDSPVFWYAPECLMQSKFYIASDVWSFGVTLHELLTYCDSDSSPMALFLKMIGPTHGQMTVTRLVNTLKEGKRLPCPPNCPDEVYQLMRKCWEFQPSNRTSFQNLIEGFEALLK
# protocol: JAK1 inhibition assay
# experimental-context: read-out: JAK1 potency IC50
# Description: After 60 min at room temperature, reactions are stopped by adding 20 μL/well of detection mixture (1× detection buffer (Perkin Elmer, catalog number CR97-100), 0.5 nM Europium-anti-phosphotyrosine (PT66) (Perkin Elmer, catalog number AD0068/AD0069), 10 mM EDTA). […] Kinase activity is calculated by subtracting the ratio obtained in the presence of a positive control inhibitor (1 μM staurosporine) from the ratio obtained in the presence of vehicle. […]
endpoint-label: IC50 (nM)
Give the value in nM but do not write nM after it.

For orientation, consider the following solved cases.
molecule="Cc1cc(C#N)nnc1Oc1cc(Nc2cc(N)ncn2)c2ncn(C)c2n1 [Compound 3]" measured_value=110
molecule="Cc1cc(C#N)ncc1Oc1cc(Nc2ccc(C(=O)NCCN(C)C)cn2)c2ncn(C)c2n1 [Compound 99]" measured_value=111

From here, focus on the item given below.
Input: Find the recorded IC50 belonging to Cc1cc(C#N)ncc1Oc1cc(Nc2ccc(N3CCNCC3)cn2)c2ncn(C)c2n1 [Compound 180] and report it.
Output: 81.7
